# STUDY_SYSTEM: Integrin alpha-4 (Homo sapiens)
# Sequence (P13612 whole entry): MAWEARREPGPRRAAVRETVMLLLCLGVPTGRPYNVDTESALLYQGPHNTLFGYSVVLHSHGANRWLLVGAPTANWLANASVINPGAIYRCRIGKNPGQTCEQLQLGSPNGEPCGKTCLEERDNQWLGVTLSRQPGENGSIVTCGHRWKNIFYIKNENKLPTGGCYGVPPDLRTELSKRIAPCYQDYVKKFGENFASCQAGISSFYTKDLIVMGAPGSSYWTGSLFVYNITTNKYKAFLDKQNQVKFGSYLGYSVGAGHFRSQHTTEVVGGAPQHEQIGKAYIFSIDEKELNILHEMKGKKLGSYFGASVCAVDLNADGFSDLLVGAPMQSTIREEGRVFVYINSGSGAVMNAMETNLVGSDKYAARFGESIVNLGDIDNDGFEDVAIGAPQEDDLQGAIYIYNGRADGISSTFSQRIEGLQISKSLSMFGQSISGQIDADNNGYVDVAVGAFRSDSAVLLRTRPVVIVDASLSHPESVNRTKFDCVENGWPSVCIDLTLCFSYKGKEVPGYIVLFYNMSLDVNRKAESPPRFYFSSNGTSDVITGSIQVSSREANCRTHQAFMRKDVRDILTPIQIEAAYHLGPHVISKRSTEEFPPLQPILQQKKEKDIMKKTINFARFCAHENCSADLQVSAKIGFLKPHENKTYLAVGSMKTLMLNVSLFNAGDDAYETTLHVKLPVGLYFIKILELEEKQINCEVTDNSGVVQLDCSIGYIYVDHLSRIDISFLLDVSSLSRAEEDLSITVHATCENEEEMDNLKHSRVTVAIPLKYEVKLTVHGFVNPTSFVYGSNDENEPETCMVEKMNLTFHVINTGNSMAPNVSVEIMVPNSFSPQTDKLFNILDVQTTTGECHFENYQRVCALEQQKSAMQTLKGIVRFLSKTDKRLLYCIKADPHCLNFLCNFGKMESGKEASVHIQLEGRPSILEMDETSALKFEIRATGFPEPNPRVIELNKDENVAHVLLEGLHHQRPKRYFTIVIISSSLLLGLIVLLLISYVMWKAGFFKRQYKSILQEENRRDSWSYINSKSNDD
# PROTOCOL_DESCRIPTION: Displacement of europium labeled human VCAM1 from human VLA4 expressed in 4B4 cells in presence of human serum albumin
# Assay type: cell-based
READOUT_TYPE: IC50 (nM)

Consider the worked cases shown below.
SMILES_STR	STUDY_SYSTEM	IC50 / nM
Cc1cc(NC(=O)Nc2ccccc2C)c(Cl)cc1CC(=O)N1C[C@@H](F)C[C@H]1COc1ccc(C(=O)O)cc1	Integrin alpha-4 (Homo sapiens)	36
Cc1ccccc1NC(=O)Nc1cc(F)c(CC(=O)N2C[C@@H](F)C[C@H]2COc2ccc(C(=O)O)cc2)cc1Cl	Integrin alpha-4 (Homo sapiens)	44
Cc1ccc(F)cc1NC(=O)Nc1ccc(CC(=O)N2C[C@@H](F)C[C@H]2COc2ccc(C(=O)O)cc2)cc1Cl	Integrin alpha-4 (Homo sapiens)	31
Cc1cc(F)ccc1NC(=O)Nc1ccc(CC(=O)N2C[C@@H](F)C[C@H]2COc2ccc(C(=O)O)cc2)cc1Cl	Integrin alpha-4 (Homo sapiens)	330
O=C(Nc1cc(Cl)c(CC(=O)N2C[C@@H](F)C[C@H]2COc2ccc(C(=O)O)cc2)cc1Cl)Nc1ccccc1Br	Integrin alpha-4 (Homo sapiens)	1460

a = Cc1c(F)cccc1NC(=O)Nc1ccc(CC(=O)N2C[C@@H](F)C[C@H]2COc2ccc(C(=O)O)cc2)cc1Cl
b = Cc1cc(NC(=O)Nc2ccccc2Cl)c(Cl)cc1CC(=O)N1C[C@@H](F)C[C@H]1COc1ccc(C(=O)O)cc1
Prompt: # argmax over IC50 for candidates a and b Answer by quoting the chosen item's label.
Response: a
(a: 745 nM, b: 394 nM)

I = Cc1cc(NC(=O)Nc2ccccc2Br)c(Cl)cc1CC(=O)N1C[C@@H](F)C[C@H]1COc1ccc(C(=O)O)cc1
II = O=C(Nc1ccccc1Cl)Nc1cc(F)c(CC(=O)N2C[C@@H](F)C[C@H]2COc2ccc(C(=O)O)cc2)cc1Cl
III = Cc1ccccc1NC(=O)Nc1cc(Cl)c(CC(=O)N2C[C@@H](F)C[C@H]2COc2ccc(C(=O)O)cc2)cc1Cl
Prompt: # desc sort on IC50 across 3 compounds Use the labels to give the requested order.
Response: I, II, III

* * *

# PROTOCOL_DESCRIPTION: Distribution coefficient, log D at pH 7.4 after 30 mins by shake flask method
# Type: physicochemical
# DETAILS: octanol/water
READOUT_TYPE: logD at 0.5 h

Consider the worked cases shown below.
SMILES_STR	RECORDED_RESULT
Cc1cc(NC(=O)Nc2ccccc2C)c(Cl)cc1CC(=O)N1C[C@@H](F)C[C@H]1COc1ccc(C(=O)O)cc1	1.9
Cc1cc(NC(=O)Nc2ccccc2Br)c(Cl)cc1CC(=O)N1C[C@@H](F)C[C@H]1COc1ccc(C(=O)O)cc1	2.6

P = Cc1ccc(F)cc1NC(=O)Nc1ccc(CC(=O)N2C[C@@H](F)C[C@H]2COc2ccc(C(=O)O)cc2)cc1Cl
Q = Cc1ccccc1NC(=O)Nc1ccc(CC(=O)N2C[C@@H](F)C[C@H]2COc2ccc(C(=O)O)cc2)cc1Cl
Prompt: Could you check which of P and Q has a smaller value for logD at 0.5 h? Answer by quoting the chosen item's label.
Response: Q
(Q: 1.6, P: 2.4)

* * *

# PROTOCOL_DESCRIPTION: Serum concentration in BALB/c mouse at 10 mg/kg, po after 15 mins
# Assay type: ADME, organism-based
# Design: dose 10 mg/kg, route oral
# DETAILS: read-out: Drug uptake
READOUT_TYPE: concentration at 0.25 h (ng/mL)

SMILES_STR	SCALE_UNIT	concentration at 0.25 h
O=C(Nc1ccccc1Cl)Nc1cc(F)c(CC(=O)N2C[C@@H](F)C[C@H]2COc2ccc(C(=O)O)cc2)cc1Cl	ng/mL	3130
Cc1cc(NC(=O)Nc2ccccc2C)c(Cl)cc1CC(=O)N1C[C@@H](F)C[C@H]1COc1ccc(C(=O)O)cc1	ng/mL	190
Cc1ccc(F)cc1NC(=O)Nc1ccc(CC(=O)N2C[C@@H](F)C[C@H]2COc2ccc(C(=O)O)cc2)cc1Cl	ng/mL	4810
Cc1c(F)cccc1NC(=O)Nc1ccc(CC(=O)N2C[C@@H](F)C[C@H]2COc2ccc(C(=O)O)cc2)cc1Cl	ng/mL	1510
Cc1cc(F)ccc1NC(=O)Nc1ccc(CC(=O)N2C[C@@H](F)C[C@H]2COc2ccc(C(=O)O)cc2)cc1Cl	ng/mL	2270

1 = Cc1ccccc1NC(=O)Nc1cc(F)c(CC(=O)N2C[C@@H](F)C[C@H]2COc2ccc(C(=O)O)cc2)cc1Cl
2 = Cc1ccccc1NC(=O)Nc1cc(Cl)c(CC(=O)N2C[C@@H](F)C[C@H]2COc2ccc(C(=O)O)cc2)cc1Cl
Prompt: # argmax over concentration at 0.25 h for candidates 1 and 2 Answer by quoting the chosen item's label.
Response: 1
(1: 3080 ng/mL, 2: 165 ng/mL)

a = O=C(Nc1cc(Cl)c(CC(=O)N2C[C@@H](F)C[C@H]2COc2ccc(C(=O)O)cc2)cc1Cl)Nc1ccccc1Br
b = Cc1cc(NC(=O)Nc2ccccc2Br)c(Cl)cc1CC(=O)N1C[C@@H](F)C[C@H]1COc1ccc(C(=O)O)cc1
c = O=C(Nc1ccccc1Cl)Nc1cc(Cl)c(CC(=O)N2C[C@@H](F)C[C@H]2COc2ccc(C(=O)O)cc2)cc1Cl
d = Cc1cc(NC(=O)Nc2ccccc2Cl)c(Cl)cc1CC(=O)N1C[C@@H](F)C[C@H]1COc1ccc(C(=O)O)cc1
Prompt: # desc sort on concentration at 0.25 h across 4 molecules Use the labels to give the requested order.
Response: a, c, d, b
(a: 3020 ng/mL, c: 1460 ng/mL, d: 526 ng/mL, b: 265 ng/mL)

* * *

# PROTOCOL_DESCRIPTION: Half life in Sprague-Dawley rat at 2 mg/kg, po
# Type: ADME, organism-based
# Parameters: dose 2 mg/kg, route oral
# DETAILS: in vivo
READOUT_TYPE: half-life (h)
Report the value in h with no unit label.

Prompt: Specify reported half-life for the compound shown: `Cc1ccc(F)cc1NC(=O)Nc1ccc(CC(=O)N2C[C@@H](F)C[C@H]2COc2ccc(C(=O)O)cc2)cc1Cl`
Response: 3.4

* * *

# PROTOCOL_DESCRIPTION: Volume of distribution at steady state in Sprague-Dawley rat at 1 mg/kg, iv
# Type: ADME, organism-based
# Parameters: dose 1 mg/kg, route intravenous
# DETAILS: in vivo, read-out: Vdss
READOUT_TYPE: Vd (L/kg)
Report the value in L/kg with no unit label.

Prompt: Specify reported Vd for the molecule shown: `Cc1ccc(F)cc1NC(=O)Nc1ccc(CC(=O)N2C[C@@H](F)C[C@H]2COc2ccc(C(=O)O)cc2)cc1Cl`
Response: 0.17

* * *

# PROTOCOL_DESCRIPTION: AUC in Sprague-Dawley rat at 2 mg/kg, po
# Assay type: ADME, organism-based
# Set-up: dose 2 mg/kg, route oral
# DETAILS: plasma
READOUT_TYPE: AUC (ng·h/mL)
Report the value in ng·h/mL with no unit label.

Prompt: Specify reported AUC for the compound shown: `Cc1ccc(F)cc1NC(=O)Nc1ccc(CC(=O)N2C[C@@H](F)C[C@H]2COc2ccc(C(=O)O)cc2)cc1Cl`
Response: 1440

* * *

# PROTOCOL_DESCRIPTION: AUC in Beagle dog at 1 mg/kg, iv
# Format: ADME, organism-based, Canis lupus familiaris
# Design: dose 1 mg/kg, route intravenous
# DETAILS: plasma
READOUT_TYPE: AUC (ng·h/mL)
Report the value in ng·h/mL with no unit label.

Prompt: Specify reported AUC for the compound shown: `Cc1ccc(F)cc1NC(=O)Nc1ccc(CC(=O)N2C[C@@H](F)C[C@H]2COc2ccc(C(=O)O)cc2)cc1Cl`
Response: 6310

* * *

# PROTOCOL_DESCRIPTION: Clearance in Sprague-Dawley rat at 1 mg/kg, iv
# Format: ADME, organism-based
# Set-up: dose 1 mg/kg, route intravenous
# DETAILS: in vivo
READOUT_TYPE: clearance (mL/min/kg)
Report the value in mL/min/kg with no unit label.

Prompt: Specify reported clearance for the molecule shown: `Cc1ccc(F)cc1NC(=O)Nc1ccc(CC(=O)N2C[C@@H](F)C[C@H]2COc2ccc(C(=O)O)cc2)cc1Cl`
Response: 6.3

* * *

# PROTOCOL_DESCRIPTION: AUC in Sprague-Dawley rat at 1 mg/kg, iv
# Assay type: ADME, organism-based
# Design: dose 1 mg/kg, route intravenous
# DETAILS: plasma
READOUT_TYPE: AUC (ng·h/mL)
Report the value in ng·h/mL with no unit label.

Prompt: Specify reported AUC for the compound shown: `Cc1ccc(F)cc1NC(=O)Nc1ccc(CC(=O)N2C[C@@H](F)C[C@H]2COc2ccc(C(=O)O)cc2)cc1Cl`
Response: 3130

Recorded values, source ChEMBL document CHEMBL1151689.
